FYI, the data here is from the supplement of paper PMC8617591.

system: Mycobacterium tuberculosis Erdman (autoluminescent); experiment: total FIC50 (Loewe) at 50% inhibition, three-drug combination (log2); higher = more antagonistic; details: in vitro model: standard 7H9 glycerol; time point: constant = terminal

{"columns": ["COMPOUND", "TARGET ENTITY", "total FIC50"],
 "data": [
  ["CC(C)/N=c1\\cc2n(-c3ccc(Cl)cc3)c3ccccc3nc-2cc1Nc1ccc(Cl)cc1 [clofazimine] + COc1c(N2C[C@@H]3CCCN[C@@H]3C2)c(F)cc2c(=O)c(C(=O)O)cn(C3CC3)c12 [moxifloxacin] + CO[C@H]1/C=C/O[C@@]2(C)Oc3c(C)c(O)c4c(O)c(c(/C=N/N5CCN(C)CC5)c(O)c4c3C2=O)NC(=O)/C(C)=C\\C=C\\[C@H](C)[C@H](O)[C@@H](C)[C@@H](O)[C@@H](C)[C@H](OC(C)=O)[C@@H]1C [rifampicin]", "Mycobacterium tuberculosis Erdman (autoluminescent)", -0.17],
  ["CC(C)/N=c1\\cc2n(-c3ccc(Cl)cc3)c3ccccc3nc-2cc1Nc1ccc(Cl)cc1 [clofazimine] + NNC(=O)c1ccncc1 [isoniazid] + CO[C@H]1/C=C/O[C@@]2(C)Oc3c(C)c(O)c4c(O)c(c(/C=N/N5CCN(C)CC5)c(O)c4c3C2=O)NC(=O)/C(C)=C\\C=C\\[C@H](C)[C@H](O)[C@@H](C)[C@@H](O)[C@@H](C)[C@H](OC(C)=O)[C@@H]1C [rifampicin]", "Mycobacterium tuberculosis Erdman (autoluminescent)", -0.19],
  ["CC(C)/N=c1\\cc2n(-c3ccc(Cl)cc3)c3ccccc3nc-2cc1Nc1ccc(Cl)cc1 [clofazimine] + CC(=O)NC[C@H]1CN(c2ccc(N3CCOCC3)c(F)c2)C(=O)O1 [linezolid] + COc1c(N2C[C@@H]3CCCN[C@@H]3C2)c(F)cc2c(=O)c(C(=O)O)cn(C3CC3)c12 [moxifloxacin]", "Mycobacterium tuberculosis Erdman (autoluminescent)", 0.199],
  ["NNC(=O)c1ccncc1 [isoniazid] + COc1c(N2C[C@@H]3CCCN[C@@H]3C2)c(F)cc2c(=O)c(C(=O)O)cn(C3CC3)c12 [moxifloxacin] + O=[N+]([O-])c1cn2c(n1)OC[C@@H](OCc1ccc(OC(F)(F)F)cc1)C2 [pretomanid]", "Mycobacterium tuberculosis Erdman (autoluminescent)", 1.14]
]}
